Assay Info: CMV-Luciferase Counterscreen for Inhibitors of ATXN expression; note: nearly all actives have a fitted effect of over 55% in size
Experimental Setup: HEK-293 CMV-luciferase reporter, luminescence, 24 h; series mostly up to 57.5 µM
In all, about 2,100 compounds went through this assay and about 670 (32%) were called active. Roughly 50% stayed inconclusive and do not appear here. Calls come from the whole dose curve; as a rule, active = well fitted inhibition curve with a large enough effect; inconclusive = small, poorly fitted or top-dose-only effect; inactive = no such curve, though single readings can be large or run the other way. The list shows a part of the results.
Give one outcome, nothing more. List: active, inactive

These solved cases illustrate the format of a correct answer.
>>> cat("CCc1nc2c(OCc3ccc(Cl)cc3Cl)cccn2c1N(C=O)Cc1ccc(OC)cc1")
"active"
>>> cat("CC(=O)N1c2ccc(S(=O)(=O)N3CCC(C(=O)Nc4cccc(C(F)(F)F)c4)CC3)cc2CC1C (stereo not given)")
"active"

Challenge: Returns: the outcome recorded for O=c1c2ccccc2sc2c(CO)ccc(NCCN3CCCCC3)c12 in this assay.
Response given: active

Challenge: Write down the call the test reported for this molecule. Item: COc1ccc(OCc2cccc(C(=O)Nn3cc([N+](=O)[O-])cn3)c2)cc1
Response given: active

Challenge: What did the test return for COc1ccc(Nc2c3ccccc3nc3ccccc23)cc1 ?
Response given: active

Challenge: What did the test return for COc1cccc(CN(C)C(=O)c2ccc(OCC(=O)Nc3cccc(C(F)(F)F)c3)c(OC)c2)c1 ?
Response given: active

Challenge: Which result was noted for this molecule in the test: CCOC(=O)N(C)c1c(CC)nc2c(OCc3ccccc3C)cccn12
Response given: active

* * *

Assay Info: CMV-Luciferase Counterscreen for Inhibitors of ATXN expression; note: nearly all actives have a fitted effect of over 55% in size
Experimental Setup: HEK-293 CMV-luciferase reporter, luminescence, 24 h; series mostly up to 57.5 µM
In all, about 2,100 compounds went through this assay and about 670 (32%) were called active. Roughly 50% stayed inconclusive and do not appear here. The call rests on the fitted dose curve; in most records, active means well fitted inhibition curve with a large enough effect; inconclusive means small, poorly fitted or top-dose-only effect; inactive means no such curve, though single readings can be large or run the other way. The list shows a part of the results.
// classify into active, inactive

Would you please look over these solved cases?
>>> cat("CCc1nc2ccc(C(=O)Nc3cccc(NS(C)(=O)=O)c3)cn2c1N(CC)Cc1cccc(Br)c1")
"active"
>>> cat("CCC(=O)OC1(C(C)=O)CCC2C3CCC4=CC(=O)CCC4(C)C3CCC21C (stereo not given)")
"inactive"
>>> cat("CC(C)(O)C#Cc1ccc([C@@H]2C[C@H]3CN(c4ccccc4)C(=O)[C@]34CCCN24)s1")
"inactive"

Challenge: Query: recorded result category for CC1(C)Cc2c(ccc3ccccc23)C2=C(C(=O)N3CCCC3)C(=O)C(=O)N21 in this test
Response given: inactive

Challenge: Called result for O=C(N/N=C\c1c(O)ccc2ccccc12)c1ccc(S(=O)(=O)N2CCCCC2)cc1
Response given: active

Challenge: So what was the verdict on CC1CCCCC1NC(=O)/C(C#N)=C/C=C/c1ccccc1[N+](=O)[O-] (stereo not given) in this test?
Response given: active

* * *

Assay Info: CMV-Luciferase Counterscreen for Inhibitors of ATXN expression; note: nearly all actives have a fitted effect of over 55% in size
Experimental Setup: HEK-293 CMV-luciferase reporter, luminescence, 24 h; series mostly up to 57.5 µM
Among all 2,100 compounds or so, about 670 (32%) were called active. Roughly 50% stayed inconclusive and do not appear here. The call rests on the fitted dose curve; in most records, active means well fitted inhibition curve with a large enough effect; inconclusive means small, poorly fitted or top-dose-only effect; inactive means no such curve, though single readings can be large or run the other way. The list shows a part of the results.
The reply should be one of these categories: TRUE for active, FALSE for inactive

>>> cat("CCN(CC)c1ccc(/C=N/NC(=O)Cc2cccs2)c(O)c1")
"TRUE"
>>> cat("Cc1cc(NCc2ccccn2)n2nc(C)c(-c3ccc(Cl)cc3)c2n1")
"TRUE"
>>> cat("Cc1cc(Oc2ccc(Cl)cc2)nc(-c2ccccn2)n1")
"FALSE"

Challenge: For O=c1oc2ccccc2c(O)c1Cc1cc(Cl)c2cccnc2c1O , which call appears in the assay record?
Response given: TRUE

Challenge: Hi, do you know how O=c1cc(N2CCN(c3ccccc3)CC2)[nH]c(=O)n1C1CCCCC1 came out in this test?
Response given: FALSE

Challenge: Hi, do you know how CCCNC(=O)c1ccc2c(=O)c(O)c(-c3cccc(Br)c3)[nH]c2c1 came out in this test?
Response given: TRUE

* * *

Assay Info: CMV-Luciferase Counterscreen for Inhibitors of ATXN expression; note: nearly all actives have a fitted effect of over 55% in size
Experimental Setup: HEK-293 CMV-luciferase reporter, luminescence, 24 h; series mostly up to 57.5 µM
The whole screen tested about 2,100 compounds, of which about 670 (32%) were called active. Another 50% or so got no clear call; they are omitted. The call rests on the fitted dose curve; in most records, active means well fitted inhibition curve with a large enough effect; inconclusive means small, poorly fitted or top-dose-only effect; inactive means no such curve, though single readings can be large or run the other way. Some of the results follow.
Write down one outcome, taken from yes (1) (active), no (0) (inactive)

Here are 2 compounds together with their reported answers.
>>> cat("CN[C@H]1C[C@H]2c3[nH]c4ccc(-c5ccc(OC)cc5)cc4c3CCN2C(=O)[C@H]1[C@H](C)O")
"yes (1)"
>>> cat("CCOc1ccc(NC(=O)Nc2nnc(CC(=O)NCc3ccccc3)s2)cc1")
"no (0)"

Challenge: So what was the verdict on COc1cccc(/C=N/NC(=O)CNC(=O)C2COc3ccccc3O2)c1O (stereo not given) in this test?
Response given: yes (1)

Challenge: What did this assay record as the result for CN(C)CCNC(=O)c1cccc2nc3cccc(F)c3nc12 ?
Response given: yes (1)

Challenge: // outcome(item) with item = CC(=NNC(=O)c1ccncc1)c1ccc2ccccc2c1O
Response given: yes (1)

Challenge: # outcome recorded in this test, key = CC(=O)NC(c1cc(Cl)c2cccnc2c1O)C(C)C (stereo not given)
Response given: yes (1)

Challenge: Hello, I am checking results. What call was entered for C/C(=N\NC(=O)c1cc(-c2cccnc2)nc2ccccc12)c1ccc(O)cc1O ?
Response given: yes (1)

Challenge: Would you mind telling me which call this test gave O=C(Nc1nc(-c2ccccc2)cs1)c1ccccc1NS(=O)(=O)c1ccc(F)cc1 ?
Response given: yes (1)

Challenge: Look up the recorded call for Cc1cc(C)c(C(=O)N2CCCC(N3CCN(c4cccc(C(F)(F)F)c4)CC3)C2)o1 (stereo not given) in this test.
Response given: yes (1)

* * *

Assay Info: CMV-Luciferase Counterscreen for Inhibitors of ATXN expression; note: nearly all actives have a fitted effect of over 55% in size
Experimental Setup: HEK-293 CMV-luciferase reporter, luminescence, 24 h; series mostly up to 57.5 µM
Screen size: about 2,100 compounds; about 670 (32%) were called active. Not shown: some 50% with an inconclusive outcome. The call rests on the fitted dose curve; in most records, active means well fitted inhibition curve with a large enough effect; inconclusive means small, poorly fitted or top-dose-only effect; inactive means no such curve, though single readings can be large or run the other way. Some of the results follow.
Choose the fitting class; nothing outside active, inactive is accepted.

>>> cat("Cn1nnnc1Sc1ncnc2scc(-c3cccc(S(C)(=O)=O)c3)c12")
"active"
>>> cat("O=[N+]([O-])c1ccc(O)c(/C=N/Nc2ncnc3c2cnn3-c2ccccc2)c1")
"active"
>>> cat("CC(=O)Nc1ccc(NC2=Nc3ccccc3N3C2=Nc2c(c(C)nn2-c2ccccc2)C3c2ccccc2)cc1 (stereo not given)")
"active"
>>> cat("COc1cccc2c1C(CO)N1C(C#N)C3CC(C(=O)O)C(C1C2)N3C (stereo not given)")
"inactive"
>>> cat("Cc1cc(NC(c2cccnc2)c2ccc3cccnc3c2O)no1 (stereo not given)")
"active"
>>> cat("COc1ccc(CC2C(=O)NC(C)C(=O)N(C)C3Cc4ccc(cc4)Oc4cc(ccc4O)CC(C(=O)NC(C)C(=O)NC(C)C(=O)N2C)N(C)C3=O)cc1 (stereo not given)")
"active"
>>> cat("Nc1c2ccccc2nc2ccccc12")
"active"
>>> cat("O=C(c1cccc(Cl)c1)c1nn(-c2ccccc2)c(=O)cc1C(F)(F)F")
"active"

Challenge: What is the recorded call for this compound in the test? COc1ccc(-n2nc(C(=O)NCC(=O)Nc3cccc(Cl)c3)c3ccccc3c2=O)cc1OC
Response given: inactive

Challenge: What did the test return for CC(=O)c1cccc(-c2csc3ncnc(Sc4nnnn4C)c23)c1 ?
Response given: active

* * *

Assay Info: CMV-Luciferase Counterscreen for Inhibitors of ATXN expression; note: nearly all actives have a fitted effect of over 55% in size; note: potency is the fitted concentration of half-maximal effect
Experimental Setup: HEK-293 CMV-luciferase reporter, luminescence, 24 h; series mostly up to 57.5 µM
In all, about 2,100 compounds went through this assay and about 670 (32%) were called active. Another 50% or so got no clear call; they are omitted. This is one part of the list.
# Potency per entry

Some compounds with known Potency results, for comparison:
>>> test_result("OCCNc1c2ccccc2nc2c(F)c(F)c(F)c(F)c12")
"7.94 µM (active)"
>>> test_result("Cc1ccc(/C=C2/SC(=S)N(CCCC(=O)Nc3ccc(O)cc3)C2=O)cc1")
"2 µM (active)"
>>> test_result("CC(=O)NC(c1ccco1)c1ccc2cccnc2c1O (stereo unspecified)")
"1.58 µM (active)"
>>> test_result("OCCNc1c2ccccc2nc2ccccc12")
"20 µM (active)"
>>> test_result("COc1cccc(/C=C2/SC(=S)N(CCCC(=O)Nc3ccc(O)cc3)C2=O)c1")
"3.16 µM (active)"

Now, please, on to the next compound.
Challenge: Fill in the blank: the reported Potency of CC(=O)NC(c1ccco1)c1cc(Cl)c2cccnc2c1O (stereo unspecified) is ____.
Response given: 7.94 µM (active)

* * *

Assay Info: CMV-Luciferase Counterscreen for Inhibitors of ATXN expression; note: nearly all actives have a fitted effect of over 55% in size
Experimental Setup: HEK-293 CMV-luciferase reporter, luminescence, 24 h; series mostly up to 57.5 µM
The whole screen tested about 2,100 compounds, of which about 670 (32%) were called active. Not shown: some 50% with an inconclusive outcome. Calls follow the shape of the dose curve; as a rule, active = well fitted inhibition curve with a large enough effect; inconclusive = small, poorly fitted or top-dose-only effect; inactive = no such curve, though single readings can be large or run the other way. This is one part of the list.
Output constraint: value belongs to active, inactive

Check out these entries, answers already filled in.
>>> cat("C=CCn1cnc2c(c1=O)c1nc3ccccc3nc1n2/N=C/c1cc(OC)c(OC)c(OC)c1")
"inactive"
>>> cat("NS(=O)(=O)c1ccc(N2N=C(c3ccccc3)CC2c2cccc(Br)c2)cc1 (configuration not stated)")
"active"
>>> cat("COc1ccccc1C(=O)NNC(=S)NC(=O)c1ccco1")
"active"
>>> cat("COc1ccc(Cc2nnc(N/N=C/c3ccccc3O)[nH]c2=O)cc1OC")
"active"
>>> cat("O=S(=O)([N-]c1nc2ccccc2nc1-[n+]1ccc(Cc2ccccc2)cc1)c1ccc(Br)s1")
"active"

Challenge: Outcome logged for Cc1c(C(=O)Nc2nonc2-c2ccc(F)cc2)oc2ccc(F)cc12 in this assay:
Response given: active

Challenge: What outcome does the record of this test show for N=c1c2c(n(Cc3cccc(Cl)c3)c3c1CCC3)CCCC2 ?
Response given: active

Challenge: Per the assay record, what outcome was assigned to Cc1ccc(NC(=O)COc2ccc(/C=C3/SC(=Nc4ccccc4)N(Cc4cccnc4)C3=O)cc2)cc1 ?
Response given: inactive

Challenge: Please share the test call associated with CCn1c2ccccc2c2cc(NC(=O)COC(=O)C3CCC(=O)N3)ccc21 (configuration not stated) .
Response given: inactive

Challenge: # fetch the recorded call for CCCCC(=O)NC(c1ccc(Cl)cc1Cl)c1ccc2cccnc2c1O (configuration not stated) here
Response given: active

Challenge: Please indicate how the test categorized c1ccc2c(c1)c1c(c3ccccc32)CN2CCCC2C1 (configuration not stated) .
Response given: inactive

Challenge: Just curious, what result did O=C(Cc1coc2cc3c(cc12)CCC3)OCC(=O)N1CCCC1=O get here?
Response given: active

Challenge: Tell me the assay call for O=C(c1ccc(F)cc1F)C1CCN(c2ccc([N+](=O)[O-])cn2)CC1 please.
Response given: active

Challenge: What was the test verdict on O=C(CN1C(=O)c2ccccc2S1(=O)=O)c1ccc(Cl)cc1Cl ?
Response given: active

Challenge: What did the test return for CCCCNCCCOc1cccc(Cl)c1Cl ?
Response given: inactive

Challenge: Which result was noted for this compound in the test: O=S(=O)(c1ccc2c(c1)OCCO2)N1CCC(c2nc3ccc(Cl)cc3[nH]2)CC1
Response given: active

Challenge: For Cc1cccc(/C=C/C(=O)c2ccc([N+](=O)[O-])o2)c1 , what call appears in the results of this test?
Response given: active

Challenge: Short answer needed: outcome of this test for O=C(/C=C\c1ccco1)Nc1nc(-c2ccc3ccccc3c2)cs1 ?
Response given: active

Challenge: Called result for COc1ccc(-c2c[n+]3c(n2-c2ccc(C)cc2)CCCCC3)cc1
Response given: active

Challenge: Would you mind telling me which call this test gave CCCC[C@@H](CNC)NC[C@H](NCCCCC1CCCCC1)C(C)C ?
Response given: active

Challenge: Identify the outcome logged in this assay for the compound shown: O=[N+]([O-])c1ccc(C[n+]2cccc3ccc4cccnc4c32)cc1
Response given: active

Challenge: How did this test come out for CCCC(=O)NC(c1ccc(Cl)cc1Cl)c1ccc2cccnc2c1O (configuration not stated) ?
Response given: active
